- Target entity: T1, Bovine calmodulin (bovine, UniProt P62157 1-149)
- T1 construct: calmodulin, bovine, purchased from Sigma; the methods say bovine calmodulin purchased from Sigma; also called CaM; recombinant calmodulin (CaM); source: bought: Sigma
- Assay summary: SPR; XIP peptide immobilised on CM5 chip (about 700 RU, carbodiimide chemistry); CaM 10, 25, 50, 100, 250 nM flowed over; Biacore 3000; running buffer NaCl 150 mM, HEPES 10 mM, CaCl2 0.1 mM, pH 7.4; 5 µl/min for 2 minutes; 1:1 Langmuir binding model
- Settings: both partners purified
Measurement label: pKd
Give bare numbers, as −log10 of the molar value.

Problem: Suppose we examine the binder RRLLFYKYVYKRYRAGKQRGM (Immobilised on a CM5 chip by carbodiimide chemistry; also called XIP regulatory-peptide of NCX; source: synthetic peptide, HPLC purified) [XIP peptide (NCX1 251-271)] ; what pKd value has been reported?
Solution: 7.70
